Test system: breast (SKBR3) cancer cell line
method: Cellular inhibition, Alamar Blue
Type: cell-based
condition label: Homo sapiens, SK-BR-3; SKBR3, 24 hours
Below, each entry is listed with its recorded IC50.
attribute measured: IC50 (µM)

molecule: COc1cc(/C=C/C(=O)CC(=O)/C=C/c2ccc(O)c(OC)c2)ccc1O [Curcumin]
attribute measured: IC50
meas value: 84.1
--
molecule: CC(=O)Oc1ccccc1C(=O)O [Aspirin, acetylsalicylic acid]
attribute measured: IC50
meas value: 731
--
molecule: CC(=O)O[C@H]1C(=O)[C@@]2(C)[C@H]([C@H](OC(=O)c3ccccc3)[C@]3(O)C[C@H](OC(=O)[C@H](O)[C@@H](NC(=O)c4ccccc4)c4ccccc4)C(C)=C1C3(C)C)[C@]1(OC(C)=O)CO[C@@H]1C[C@@H]2O [Taxol, Paclitaxel]
attribute measured: IC50
meas value: 0.694
